# experimental.target: AspH (Homo sapiens)
# Sequence (Q12797 315-758): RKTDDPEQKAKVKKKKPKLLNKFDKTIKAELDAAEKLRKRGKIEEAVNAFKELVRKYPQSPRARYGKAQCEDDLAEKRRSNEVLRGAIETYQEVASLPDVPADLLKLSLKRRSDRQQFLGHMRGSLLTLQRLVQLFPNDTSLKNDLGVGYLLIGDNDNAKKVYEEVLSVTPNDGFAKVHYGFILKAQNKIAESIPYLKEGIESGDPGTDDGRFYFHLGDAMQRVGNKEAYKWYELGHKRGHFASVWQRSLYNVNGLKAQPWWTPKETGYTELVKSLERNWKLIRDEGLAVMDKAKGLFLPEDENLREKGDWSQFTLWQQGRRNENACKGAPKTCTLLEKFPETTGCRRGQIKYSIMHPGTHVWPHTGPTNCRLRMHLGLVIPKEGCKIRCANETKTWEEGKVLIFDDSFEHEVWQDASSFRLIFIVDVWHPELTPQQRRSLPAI
# assay.protocol: biochemical
Answer each item with its documented IC50.
Numbers only here, please. The scale is µM.

Give a short answer stating reported IC50 for O=C(O)Cc1csc(=NC(=O)C2CCN(S(=O)(=O)c3ccc(C(F)(F)F)cc3)C2)n1O (centres unmarked) .
36

Give reported IC50 value for "O=C(O)Cc1cs/c(=N\C(=O)COc2ccccc2)n1O"
20.2

Complete the entry with IC50 for "O=C(O)Cc1cs/c(=N\C(=O)CNC(=O)c2ccccc2)n1O"
2.4

Recall and state the measured IC50 for O=C(O)Cc1cs/c(=N\C(=O)C2CCCN2S(=O)(=O)c2ccccc2)n1O (centres unmarked) .
24.9

# return recorded IC50 for entry O=C(O)Cc1csc(=NC(=O)C2CCN(S(=O)(=O)c3ccc4ccccc4c3)C2)n1O (centres unmarked)
40.1

Write down IC50 measured for item "O=C(O)Cc1cs/c(=N\C(=O)CCNS(=O)(=O)c2ccccc2)n1O"
23.3

Give the value of IC50 reported for the following: "O=C(O)Cc1cs/c(=N\C(=O)CNS(=O)(=O)c2ccccc2)n1O"
3.1

Given O=C(O)Cc1csc(=NC(=O)C2CCN(S(=O)(=O)c3ccccc3)C2)n1O (centres unmarked) , respond with its IC50.
37.8

Look up IC50 of "O=C(O)Cc1cs/c(=N\C(=O)CS(=O)(=O)Nc2ccccc2)n1O" and report it.
0.76

Let me know recorded IC50 for "O=C(O)Cc1cs/c(=N\C(=O)C2CN(S(=O)(=O)c3ccccc3)C2)n1O" , thanks.
60.9

Could you please provide reported IC50 for "CCOC(=O)Cc1cs/c(=N\C(=O)CS(=O)(=O)c2ccccc2)n1O" ? Thanks!
68

Fill in IC50 for record "COC(=O)Cc1cs/c(=N\C(=O)CS(=O)(=O)c2ccccc2)n1O"
96.7

Give recorded IC50. O=C(O)Cc1cs/c(=N\C(=O)C2CCCN(S(=O)(=O)c3ccccc3)C2)n1O (centres unmarked)
49.1

====

# experimental.target: JMJD5 (Homo sapiens, UniProt Q8N371)
# Sequence (Q8N371 whole entry): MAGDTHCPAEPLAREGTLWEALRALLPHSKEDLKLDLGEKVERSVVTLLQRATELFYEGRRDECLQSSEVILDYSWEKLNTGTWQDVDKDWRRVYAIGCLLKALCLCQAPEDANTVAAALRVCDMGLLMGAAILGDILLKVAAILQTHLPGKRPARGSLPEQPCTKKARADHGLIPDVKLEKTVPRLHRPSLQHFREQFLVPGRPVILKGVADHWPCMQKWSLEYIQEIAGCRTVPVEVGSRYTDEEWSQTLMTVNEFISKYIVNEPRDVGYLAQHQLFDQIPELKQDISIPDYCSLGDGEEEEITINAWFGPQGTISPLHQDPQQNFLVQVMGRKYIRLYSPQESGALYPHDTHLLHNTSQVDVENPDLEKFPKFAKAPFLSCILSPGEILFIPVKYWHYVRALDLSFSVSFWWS
# assay.protocol: biochemical
# applied.conditions: read-out: JMJD5 IC50
Kindly supply the reported IC50 values for the records listed here.
State the answer as a number, implicitly in nM.

Give the measured IC50 for "O=C(O)Cc1cs/c(=N\C(=O)CS(=O)(=O)Nc2ccccc2)n1O"
2800

Identify measured IC50 corresponding to O=C(O)Cc1cs/c(=N\C(=O)CS(=O)(=O)Cc2ccc3ccccc3c2)n1O [BNS, reference compound]
250

Output measured IC50 for this item: "O=C(O)Cc1cs/c(=N\C(=O)COc2ccccc2)n1O"
1200

====

# experimental.target: FIH (Homo sapiens)
# Construct: made in house
# assay.protocol: SPE-MS FIH inhibition assay
# Type: biochemical
# applied.conditions: as judged by IC50 values
measure.name: selectivity for FIH inhibition over AspH inhibition

// fetch selectivity for FIH inhibition over AspH inhibition for O=C(O)Cc1csc(=NC(=O)C2CCN(S(=O)(=O)c3ccccc3)C2)n1O (stereo not shown) ; system: FIH (Homo sapiens)
~75 fold

Give selectivity for FIH inhibition over AspH inhibition for this entry on FIH (Homo sapiens): O=C(O)Cc1csc(=NC(=O)C2CCN(S(=O)(=O)Cc3ccccc3)C2)n1O (stereo not shown)
> 100 fold

GET selectivity for FIH inhibition over AspH inhibition where system = FIH (Homo sapiens) and item = O=C(O)Cc1csc(=NC(=O)C2CCN(S(=O)(=O)c3ccc(-c4ccccc4)cc3)C2)n1O (stereo not shown)
> 100 fold

Enter selectivity for FIH inhibition over AspH inhibition (test system FIH (Homo sapiens)) for O=C(O)Cc1csc(=NC(=O)C2CCN(S(=O)(=O)c3ccc(Oc4ccccc4)cc3)C2)n1O (stereo not shown)
> 100 fold

====

# experimental.target: FIH (Homo sapiens, UniProt Q9NWT6)
# Construct: made in house
# Sequence (Q9NWT6 whole entry): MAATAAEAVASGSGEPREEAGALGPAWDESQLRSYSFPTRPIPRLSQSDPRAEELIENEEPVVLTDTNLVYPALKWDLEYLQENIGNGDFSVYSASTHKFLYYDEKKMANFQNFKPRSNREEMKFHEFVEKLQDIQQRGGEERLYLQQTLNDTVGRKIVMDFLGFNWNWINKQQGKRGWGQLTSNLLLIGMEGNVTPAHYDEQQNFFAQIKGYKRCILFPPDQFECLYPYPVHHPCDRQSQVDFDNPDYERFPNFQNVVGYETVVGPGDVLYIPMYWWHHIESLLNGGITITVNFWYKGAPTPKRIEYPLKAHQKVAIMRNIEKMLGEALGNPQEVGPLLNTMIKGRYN
# assay.protocol: SPE-MS FIH inhibition assay
# Assay type: biochemical
pIC50: −log10 of the molar value.
Assign yes to entries whose pIC50 meets or exceeds 6; assign no to the rest.

Record "O=C(O)Cc1cs/c(=N\C(=O)CS(=O)(=O)Nc2ccccc2)n1O" ; criterion: pIC50 no lower than 6. Met?
yes

Quick check, pIC50 >= 6? O=C(O)Cc1csc(=NC(=O)C2CCN(S(=O)(=O)Cc3ccccc3)C2)n1O (stereo not drawn)
yes

Please indicate if the recorded pIC50 for "O=C(O)Cc1cs/c(=N\C(=O)CCC(=O)Nc2ccccc2)n1O" meets or exceeds 6.
no

Could you please find out whether "O=C(CS(=O)(=O)c1ccccc1)/N=c1\sccn1O" has pIC50 that meets 6 or exceeds it?
no

Reported pIC50 reaches at least 6 for O=C(O)Cc1csc(=NC(=O)C2CCN(S(=O)(=O)c3ccccc3Cl)C2)n1O (stereo not drawn) ?
yes

Please check the record O=C(O)Cc1csc(=NC(=O)C2CCN(S(=O)(=O)c3cccs3)C2)n1O (stereo not drawn) and state if its pIC50 is at or above 6.
yes

Please indicate if the recorded pIC50 for CC1(C(=O)/N=c2\scc(CC(=O)O)n2O)CCN(S(=O)(=O)c2ccccc2)C1 (stereo not drawn) meets or exceeds 6.
no

Say whether "COC(=O)Cc1cs/c(=N\C(=O)CS(=O)(=O)c2ccccc2)n1O" shows pIC50 of 6 or more.
no

Quick check, pIC50 >= 6? O=C(O)CNC(=O)c1c(O)cc(CCc2ccccc2)n2ncnc12 [Enarodustat, reference compound]
no

Please tell me: is the compound O=C(O)Cc1csc(=NC(=O)C2CCN(S(=O)(=O)c3ccc4ccccc4c3)C2)n1O (stereo not drawn) at or over 6 in terms of pIC50?
yes

# bool: pIC50 of O=C(O)Cc1cs/c(=N\C(=O)C2CCCN2S(=O)(=O)c2ccccc2)n1O (stereo not drawn) >= 6
no

Does the reported pIC50 for O=C(O)Cc1csc(=NC(=O)C2CCN(S(=O)(=O)c3ccc(Cl)cc3)C2)n1O (stereo not drawn) fall at or above the 6 mark?
yes

Could you please find out whether O=C(O)Cc1csc(=NC(=O)C2CCN(S(=O)(=O)c3ccccc3)C2)n1O (stereo not drawn) has pIC50 that meets 6 or exceeds it?
yes

Decide: pIC50 of CC(C(=O)O)c1cs/c(=N\C(=O)CS(=O)(=O)c2ccccc2)n1O (stereo not drawn) >= 6?
no

Evaluate "O=C(O)Cc1csc(NC(=O)CS(=O)(=O)c2ccccc2)n1" : pIC50 at minimum 6?
no

# check: pIC50 of O=C(O)CNC(=O)c1c(O)c2ccccc2n(OCC2CC2)c1=O [Desidustat, reference compound] is greater than or equal to 6
no

Decide: pIC50 of "N#CCc1cs/c(=N\C(=O)CS(=O)(=O)c2ccccc2)n1O" >= 6?
no

====

Provide the recorded pIC50 for the entries that follow.
# experimental.target: UniProtKB Q8N371
# assay.protocol: biochemical
# applied.conditions: read-out: JMJD5 IC50
Here pIC50 is given on a logarithmic scale as minus log10 of the concentration in mol/L.

Give pIC50; test system UniProtKB Q8N371; compound C[C@@H]1CN(S(=O)(=O)c2ccccc2)C[C@H]1C(=O)/N=c1\scc(CC(=O)O)n1O (relative stereo)
4.59

Provide pIC50, recorded with UniProtKB Q8N371, of "O=C(O)Cc1cs/c(=N\C(=O)CCS(=O)(=O)c2ccccc2)n1O"
5.48

Name the value of pIC50 reported for "O=C(O)Cc1cs/c(=N\C(=O)CCC(=O)Nc2ccccc2)n1O" when tested on UniProtKB Q8N371.
5.08

Give pIC50; test system UniProtKB Q8N371; compound O=C(O)Cc1csc(=NC(=O)C2CCN(S(=O)(=O)Cc3ccccc3)C2)n1O (stereo not drawn)
5.14

Please indicate recorded pIC50 of "O=C(O)Cc1cs/c(=N\C(=O)CNS(=O)(=O)c2ccccc2)n1O" measured with UniProtKB Q8N371.
4.92

Tell me pIC50 of O=C(O)Cc1csc(=NC(=O)C2CCN(S(=O)(=O)c3cccs3)C2)n1O (stereo not drawn) when tested on UniProtKB Q8N371.
4.81

Give measured pIC50 for "O=C(O)Cc1cs/c(=N\C(=O)CNc2ccccc2)n1O" (UniProtKB Q8N371).
5.33

// fetch pIC50 for COc1ccc(S(=O)(=O)N2CCC(C(=O)N=c3scc(CC(=O)O)n3O)C2)cc1 (stereo not drawn) ; system: UniProtKB Q8N371
4.80

State pIC50 on UniProtKB Q8N371. Entry: "O=C(O)Cc1cs/c(=N\C(=O)C2CN(S(=O)(=O)c3ccccc3)C2)n1O"
4.54

Tell me pIC50 of O=C(O)Cc1cs/c(=N\C(=O)C2CCCN2S(=O)(=O)c2ccccc2)n1O (stereo not drawn) when tested on UniProtKB Q8N371.
5.59

State pIC50 on UniProtKB Q8N371. Entry: O=C(O)Cc1csc(=NC(=O)C2CCN(S(=O)(=O)c3ccc(Cl)cc3)C2)n1O (stereo not drawn)
4.42

// fetch pIC50 for O=C(O)Cc1csc(=NC(=O)C2CCN(S(=O)(=O)c3cccc(Cl)c3)C2)n1O (stereo not drawn) ; system: UniProtKB Q8N371
4.73

Report value only: pIC50, UniProtKB Q8N371, O=C(O)Cc1csc(=NC(=O)C2CCN(S(=O)(=O)c3ccc(-c4ccccc4)cc3)C2)n1O (stereo not drawn)
4.50

Lab note: UniProtKB Q8N371 assay, enter pIC50 for "CC(=O)/N=c1\scc(CC(=O)O)n1O" here
5.49

Enter measured pIC50, system UniProtKB Q8N371, for the compound shown: O=C(O)Cc1csc(=NC(=O)C2CCN(S(=O)(=O)c3ccc4ccccc4c3)C2)n1O (stereo not drawn)
4.20

Quote pIC50 with test system UniProtKB Q8N371 for "CNC(=O)Cc1cs/c(=N\C(=O)CS(=O)(=O)c2ccccc2)n1O"
4.11

Data origin, for the record: paper PMC10631261
